# TESTED_SYSTEM: UniProt:P04818
# Sequence (P04818 whole entry): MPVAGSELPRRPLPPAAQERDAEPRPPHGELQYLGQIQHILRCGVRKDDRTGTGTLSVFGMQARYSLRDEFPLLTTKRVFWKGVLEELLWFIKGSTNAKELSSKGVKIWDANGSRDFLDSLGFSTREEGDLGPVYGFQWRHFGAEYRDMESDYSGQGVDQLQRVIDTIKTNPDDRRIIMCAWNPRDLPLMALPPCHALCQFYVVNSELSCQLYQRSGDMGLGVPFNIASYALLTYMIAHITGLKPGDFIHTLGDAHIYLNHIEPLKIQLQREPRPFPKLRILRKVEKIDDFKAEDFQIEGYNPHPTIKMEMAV
# PROCEDURE_SUMMARY: Inhibitory concentration against human TS
OUTCOME_MEASURE: IC50

(Q) Which IC50 is listed for `Nc1nc(N)c2c(CNc3ccc(C(=O)N[C@@H](CCC(=O)O)C(=O)O)cc3)coc2n1` ?
(A) > 200 µM
